Values were extracted from ChEMBL document CHEMBL1146005.

Biological target: Estrogen receptor (Homo sapiens)
Sequence (P03372 whole entry): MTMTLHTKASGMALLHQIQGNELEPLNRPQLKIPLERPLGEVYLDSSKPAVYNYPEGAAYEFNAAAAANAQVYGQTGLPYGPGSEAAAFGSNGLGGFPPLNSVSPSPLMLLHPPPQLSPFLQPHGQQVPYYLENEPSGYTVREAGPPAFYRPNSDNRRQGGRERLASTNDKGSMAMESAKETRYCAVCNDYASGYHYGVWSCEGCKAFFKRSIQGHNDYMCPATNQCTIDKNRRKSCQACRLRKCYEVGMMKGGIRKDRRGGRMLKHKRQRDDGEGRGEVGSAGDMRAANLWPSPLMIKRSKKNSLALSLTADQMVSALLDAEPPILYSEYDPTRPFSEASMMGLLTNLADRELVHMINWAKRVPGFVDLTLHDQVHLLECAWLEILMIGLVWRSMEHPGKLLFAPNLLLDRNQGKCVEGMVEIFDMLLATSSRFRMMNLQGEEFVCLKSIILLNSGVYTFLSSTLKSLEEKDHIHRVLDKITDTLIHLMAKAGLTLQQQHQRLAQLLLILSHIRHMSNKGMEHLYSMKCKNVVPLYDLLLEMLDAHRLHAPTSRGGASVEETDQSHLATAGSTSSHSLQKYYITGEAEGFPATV
measurement type: pIC50
One number for each entry, as −log10 of the molar value.

Please review the following examples before continuing.
Determine from records and report pIC50 for CCCC[C@@]12CCC(=O)C(CC)=C1c1ccc3[nH]ncc3c1C2 7.03

Determine from records and report pIC50 for O=C1CC[C@@]2(CCC3CC3)Cc3c(ccc4[nH]ncc34)C2=C1Br 6.64

Determine from records and report pIC50 for CCCC[C@@]12CCC(=O)C(C(=O)OC)=C1c1ccc3[nH]ncc3c1C2 5.68

Determine from records and report pIC50 for CCC1=C2c3ccc4[nH]ncc4c3CC2(CC)CCC1=O (racemic) 6.65

Determine from records and report pIC50 for CC[C@@]12CCC(=O)C(C(F)(F)F)=C1c1ccc3[nH]ncc3c1C2=O 7.24

As a next step, examine the molecule that follows.
Determine from records and report pIC50 for O=C1CC[C@@]2(CC3CC3)Cc3c(ccc4[nH]ncc34)C2=C1Br 6.64
